STUDY_TARGET: human pancreas Glucokinase (GK) (Homo sapiens)
Construct: (His)6; made in house; host or cells: Escherichia coli
Sequence (P35557 1-465): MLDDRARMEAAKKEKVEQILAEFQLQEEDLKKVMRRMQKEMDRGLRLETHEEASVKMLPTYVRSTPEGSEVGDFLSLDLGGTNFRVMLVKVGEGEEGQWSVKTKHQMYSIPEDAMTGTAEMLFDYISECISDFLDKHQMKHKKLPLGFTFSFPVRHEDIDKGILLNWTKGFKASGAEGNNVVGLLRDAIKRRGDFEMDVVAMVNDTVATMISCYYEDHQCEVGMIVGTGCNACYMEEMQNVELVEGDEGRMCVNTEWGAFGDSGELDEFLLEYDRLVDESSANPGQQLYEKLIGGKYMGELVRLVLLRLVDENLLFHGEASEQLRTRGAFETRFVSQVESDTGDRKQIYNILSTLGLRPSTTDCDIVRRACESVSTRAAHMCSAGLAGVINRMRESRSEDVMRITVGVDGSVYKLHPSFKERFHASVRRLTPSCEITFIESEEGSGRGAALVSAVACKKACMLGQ
MEASUREMENT_NOTES: Glucokinase enzyme assay, Pancreas GK data
Assay type: biochemical
MEASUREMENT_CONDITIONS: concentration producing 100% activation above vehicle control
MEASUREMENT_LABEL: EC100% (µM)
Could you give me the number in µM? Just the number is fine.

{"MOLECULE": "CN(C)c1ccc(CN2C(=O)c3cccc(F)c3C2SCC(=O)Nc2ccccn2)cc1 (stereo not shown) [Compound 51]", "UNIT_LABEL": "µM", "EC100%": 1.7}
{"MOLECULE": "COc1cc(CN2C(=O)c3ccccc3C2SCC(=O)Nc2ccccn2)cc(OC)c1OC (stereo not shown) [Compound 39]", "UNIT_LABEL": "µM", "EC100%": 5.3}
{"MOLECULE": "O=C(CSC1c2ccccc2C(=O)N1Cc1ccc(N2CCCC2=O)cc1)Nc1ccccn1 (stereo not shown) [Compound 40]", "UNIT_LABEL": "µM", "EC100%": 16.1}

Return value of EC100% for input O=C(CSC1c2ccccc2C(=O)N1Cc1ccc2c(c1)OCCO2)Nc1ccccn1 (stereo not shown) [Compound 38] , no commentary. 3.8

====

STUDY_TARGET: human pancreas Glucokinase (GK) (Homo sapiens)
Construct: (His)6; made in house; host or cells: Escherichia coli
Sequence (P35557 1-465): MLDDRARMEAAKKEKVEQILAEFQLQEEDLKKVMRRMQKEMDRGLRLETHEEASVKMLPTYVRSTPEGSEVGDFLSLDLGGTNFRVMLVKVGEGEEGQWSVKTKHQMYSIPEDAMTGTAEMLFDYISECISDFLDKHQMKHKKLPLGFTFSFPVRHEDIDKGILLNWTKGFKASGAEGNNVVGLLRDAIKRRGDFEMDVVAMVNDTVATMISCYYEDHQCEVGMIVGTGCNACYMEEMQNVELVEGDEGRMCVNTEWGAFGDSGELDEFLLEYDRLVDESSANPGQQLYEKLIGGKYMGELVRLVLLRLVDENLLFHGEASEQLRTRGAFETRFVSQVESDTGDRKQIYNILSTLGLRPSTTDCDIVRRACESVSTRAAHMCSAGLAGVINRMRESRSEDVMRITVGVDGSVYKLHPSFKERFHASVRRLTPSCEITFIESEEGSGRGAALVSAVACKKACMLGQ
MEASUREMENT_NOTES: Glucokinase enzyme assay, Pancreas GK data
Format: biochemical
MEASUREMENT_CONDITIONS: concentration producing 50% activation above vehicle control
Below: a set of entries, each annotated with reported EC50.
Could you give me the number in nM? Just the number is fine.

Below, each entry is followed by its recorded EC50 result.
{"COMPOUND": "COc1cc(CN2C(=O)c3ccccc3C2SCC(=O)Nc2ccccn2)cc(OC)c1OC (stereo not shown)", "EC50 (nM)": 1400}
{"COMPOUND": "COc1ccc(CN2C(=O)c3c(F)ccc(F)c3C2SCC(=O)Nc2ccc(C(=O)O)cn2)cc1OC (stereo not shown)", "EC50 (nM)": 130}
{"COMPOUND": "O=C(CSC1c2ccccc2C(=O)N1Cc1ccc2sccc2c1)Nc1ccccn1 (stereo not shown)", "EC50 (nM)": 890}

Switching to the query record.
Return value of EC50 for input CN(C)c1ccc(CN2C(=O)c3cccc(F)c3C2SCC(=O)Nc2ccccn2)cc1 (stereo not shown) , no commentary. 360

====

STUDY_TARGET: human pancreas Glucokinase (GK) (Homo sapiens)
Construct: (His)6; made in house; host or cells: Escherichia coli
MEASUREMENT_NOTES: Glucokinase enzyme assay, Pancreas GK data
Type: biochemical
MEASUREMENT_CONDITIONS: compound 50 μM, percentage increase in GK activity above vehicle control, 12 mM glucose
MEASUREMENT_LABEL: activation at 50 µM (%)
Could you give me the number in %? Just the number is fine.

Below, each entry is followed by its recorded activation at 50 µM result.
{"COMPOUND": "O=C(CSC1c2ccccc2C(=O)N1Cc1ccc(-n2cccn2)cc1)Nc1ccccn1 (stereo not drawn)", "MEASUREMENT_LABEL": "activation at 50 µM", "UNIT_LABEL": "%", "ENDPOINT_RESULT": 106}
{"COMPOUND": "O=C(CSC1c2ccccc2C(=O)N1Cc1ccc(F)cc1)Nc1ccc(C(=O)O)cn1 (stereo not drawn)", "MEASUREMENT_LABEL": "activation at 50 µM", "UNIT_LABEL": "%", "ENDPOINT_RESULT": 358}
{"COMPOUND": "COC(=O)c1ccc(NC(=O)COC2c3cc(C)ccc3C(=O)N2Cc2ccccc2)nc1 (stereo not drawn)", "MEASUREMENT_LABEL": "activation at 50 µM", "UNIT_LABEL": "%", "ENDPOINT_RESULT": 127}
{"COMPOUND": "CCCCN1C(=O)c2ccccc2C1OCC(=O)Nc1nccs1 (stereo not drawn)", "MEASUREMENT_LABEL": "activation at 50 µM", "UNIT_LABEL": "%", "ENDPOINT_RESULT": 101}
{"COMPOUND": "COc1ccc(CN2C(=O)c3ccccc3C2SCC(=O)Nc2ccccn2)cc1 (stereo not drawn)", "MEASUREMENT_LABEL": "activation at 50 µM", "UNIT_LABEL": "%", "ENDPOINT_RESULT": 250}
{"COMPOUND": "O=C(CSC1c2ccccc2C(=O)N1Cc1ccc2c(c1)OCCO2)Nc1ccccn1 (stereo not drawn)", "MEASUREMENT_LABEL": "activation at 50 µM", "UNIT_LABEL": "%", "ENDPOINT_RESULT": 201}
{"COMPOUND": "O=C(CSC1c2ccccc2C(=O)N1Cc1ccc(N2CCCC2=O)cc1)Nc1ccccn1 (stereo not drawn)", "MEASUREMENT_LABEL": "activation at 50 µM", "UNIT_LABEL": "%", "ENDPOINT_RESULT": 109}
{"COMPOUND": "Cc1[nH]c2ccc(CN3C(=O)c4ccccc4C3SCC(=O)Nc3ccccn3)cc2c1C (stereo not drawn)", "MEASUREMENT_LABEL": "activation at 50 µM", "UNIT_LABEL": "%", "ENDPOINT_RESULT": 132}

Switching to the query record.
Return value of activation at 50 µM for input Cc1ccc2c(c1)C(OCC(=O)Nc1nccs1)N(Cc1ccccc1)C2=O (stereo not drawn) , no commentary. 102

====

STUDY_TARGET: human liver Glucokinase (GK) (Homo sapiens)
Construct: (His)6; made in house; host or cells: Escherichia coli
MEASUREMENT_NOTES: Glucokinase enzyme assay, Liver GK data
Format: biochemical
MEASUREMENT_CONDITIONS: compound 50 μM, percentage increase in GK activity above vehicle control, 12 mM glucose
// label = fulfilled if activation at 50 µM is not less than 200%, otherwise not fulfilled

Here are 5 compounds together with their reported answers.
{"COMPOUND": "O=C(CSC1c2ccccc2C(=O)N1Cc1ccc(Cl)cc1)Nc1nccs1 (stereo not shown)", "ASSIGNED_LABEL": "not fulfilled"}
{"COMPOUND": "O=C(CSC1c2ccccc2C(=O)N1Cc1cccs1)Nc1ncccn1 (stereo not shown)", "ASSIGNED_LABEL": "not fulfilled"}
{"COMPOUND": "COC(=O)c1ccc(NC(=O)COC2c3ccccc3C(=O)N2Cc2ccccc2)nc1 (stereo not shown)", "ASSIGNED_LABEL": "fulfilled"}
{"COMPOUND": "O=C(CSC1c2ccccc2C(=O)N1Cc1ccco1)Nc1nccs1 (stereo not shown)", "ASSIGNED_LABEL": "not fulfilled"}
{"COMPOUND": "COC(=O)c1ccc(NC(=O)CSC2c3ccccc3C(=O)N2Cc2ccccc2)nc1 (stereo not shown)", "ASSIGNED_LABEL": "not fulfilled"}

Reported activation at 50 µM reaches at least 200% for O=C(COC1c2ccccc2C(=O)N1Cc1ccccc1)Nc1nccs1 (stereo not shown) ? not fulfilled

Reported activation at 50 µM reaches at least 200% for COC(=O)c1ccc(NC(=O)CSC2c3ccccc3C(=O)N2Cc2cccs2)nc1 (stereo not shown) ? not fulfilled

Reported activation at 50 µM reaches at least 200% for CCOC(=O)Cc1csc(NC(=O)CSC2c3ccccc3C(=O)N2Cc2cccs2)n1 (stereo not shown) ? not fulfilled

Reported activation at 50 µM reaches at least 200% for CN(C)c1ccc(CN2C(=O)c3ccccc3C2SCC(=O)Nc2nccs2)cc1 (stereo not shown) ? fulfilled

Reported activation at 50 µM reaches at least 200% for O=C(CSC1c2ccccc2C(=O)N1Cc1ccccc1)Nc1ccc(C(=O)O)cn1 (stereo not shown) ? not fulfilled

Reported activation at 50 µM reaches at least 200% for COc1ccc(CN2C(=O)c3ccccc3C2SCC(=O)Nc2nccs2)cc1 (stereo not shown) ? not fulfilled

Reported activation at 50 µM reaches at least 200% for O=C(COC1c2ccccc2C(=O)N1Cc1ccccc1)Nc1ccccn1 (stereo not shown) ? not fulfilled
